// provenance: the supplement of paper PMC10567573

B1: ATL3 (parent)
chain: HFKKTKKMGGKDFSFRYQQELEEE

Variants of: B1
Experiment: protein stability index of a GFP-peptide fusion (GPS, HEK-293T) (PSI 1-6); higher = more stable;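 also: lentivirally expressed fusions sorted by FACS into six bins by GFP to DsRed ratio, PSI derived from sequencing read proportions per bin multiplied by bin number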
Conditions: c terminus: a fixed tail appended
quantityMeasured: protein stability index

>>> result("K7A")
2.02
>>> result("L21N")
4.27
>>> result("K7G")
1.8
>>> result("Q18G")
1.87
>>> result("M8D")
2.14
>>> result("K11N")
1.78
>>> result("K11E")
1.2
>>> result("Y17P")
4.68
>>> result("S14Q")
1.93
